- study-target: cGMP-inhibited 3',5'-cyclic phosphodiesterase 3B (Homo sapiens)
- Sequence (Q13370 whole entry): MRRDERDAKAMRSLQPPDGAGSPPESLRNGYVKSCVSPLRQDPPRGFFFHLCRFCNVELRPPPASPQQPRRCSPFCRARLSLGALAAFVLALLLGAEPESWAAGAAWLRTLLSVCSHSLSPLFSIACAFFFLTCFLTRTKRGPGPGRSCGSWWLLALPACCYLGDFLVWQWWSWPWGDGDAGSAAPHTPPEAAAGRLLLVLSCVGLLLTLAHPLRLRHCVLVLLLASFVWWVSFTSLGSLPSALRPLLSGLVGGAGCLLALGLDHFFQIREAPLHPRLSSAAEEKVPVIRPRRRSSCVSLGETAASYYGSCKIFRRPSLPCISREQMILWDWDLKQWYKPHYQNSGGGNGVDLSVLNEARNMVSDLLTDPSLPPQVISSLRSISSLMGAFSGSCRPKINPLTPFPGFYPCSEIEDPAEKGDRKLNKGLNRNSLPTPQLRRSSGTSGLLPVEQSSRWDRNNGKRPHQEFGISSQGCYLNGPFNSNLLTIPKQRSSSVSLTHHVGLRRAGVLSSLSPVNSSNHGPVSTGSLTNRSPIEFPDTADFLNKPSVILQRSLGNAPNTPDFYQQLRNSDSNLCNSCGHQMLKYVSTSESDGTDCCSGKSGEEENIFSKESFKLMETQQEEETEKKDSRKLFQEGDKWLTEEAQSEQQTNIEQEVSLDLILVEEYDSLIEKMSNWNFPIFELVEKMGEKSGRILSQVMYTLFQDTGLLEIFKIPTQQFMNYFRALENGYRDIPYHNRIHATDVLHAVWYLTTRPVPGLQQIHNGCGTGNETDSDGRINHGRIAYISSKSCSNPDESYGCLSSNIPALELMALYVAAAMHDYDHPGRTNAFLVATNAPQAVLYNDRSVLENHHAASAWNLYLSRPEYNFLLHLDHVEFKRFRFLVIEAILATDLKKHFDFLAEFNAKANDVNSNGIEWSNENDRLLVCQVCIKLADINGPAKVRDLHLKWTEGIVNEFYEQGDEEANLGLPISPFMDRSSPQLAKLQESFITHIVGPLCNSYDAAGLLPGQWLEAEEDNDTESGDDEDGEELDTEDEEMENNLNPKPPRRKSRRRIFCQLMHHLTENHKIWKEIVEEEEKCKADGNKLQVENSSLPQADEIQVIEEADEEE
- experiment-notes: Inhibition of recombinant human N-terminal GST-tagged PDE3B (592 to end residues) expressed in baculovirus infected sf9 cells using FAM-cyclic-3',5-AMP as substrate after 1 hr by fluorescence polarization assay
pIC50: −log10 of the molar value.
Here the recorded pIC50 is given for each entry.
attribute-measured: pIC50

> print(dat)
                                item.smiles  test.value
1  CCc1ccc([C@@H]2c3[nH]c4ccccc4c3C[C@@H]3C(=O)N(C)CC(=O)N23)s1      < 4.70
2  CCCCN1C(=O)[C@H]2Cc3c([nH]c4ccccc34)[C@@H](c3ccc(CC)s3)N2C1=O      < 4.70
3  CCc1ccc([C@H]2c3[nH]c4ccccc4c3C[C@@H]3C(=O)N(CC)C(=O)N23)o1      < 4.70
4  CCc1ccc([C@@H]2c3[nH]c4ccccc4c3C[C@@H]3C(=O)N(CC)C(=O)N23)s1      < 4.70
5  CCCCN1C(=O)[C@@H]2Cc3c([nH]c4ccccc34)[C@@H](c3ccc(CC)s3)N2C1=O      < 4.70

----------
Here the recorded inhibition is given for each entry.
- study-target: cGMP-specific 3',5'-cyclic phosphodiesterase (Homo sapiens, UniProt O76074)
- experiment-notes: Inhibition of full length recombinant human N-terminal GST-tagged PDE5A1 expressed in baculovirus infected sf9 cells at 100 nM using FAM-cyclic-3',5-GMP as substrate after 1 hr by fluorescence polarization assay relative to control
attribute-measured: inhibition (%)

> print(dat)
                                    compound                              study.target  unit.symbol  test.value
 1  Cc1ccsc1[C@@H]1c2[nH]c3ccccc3c2C[C@@H]2C(=O)N(C)CC(=O)N12  cGMP-specific 3',5'-cyclic phosphodiesterase (Homo sapiens, UniProt O76074)            %        66.7
 2  CCc1ccc([C@H]2c3[nH]c4ccccc4c3C[C@@H]3C(=O)N(CC)C(=O)N23)s1  cGMP-specific 3',5'-cyclic phosphodiesterase (Homo sapiens, UniProt O76074)            %        45.8
 3  CCc1ccc([C@@H]2c3[nH]c4ccccc4c3C[C@H]3C(=O)N(CC)C(=O)N23)s1  cGMP-specific 3',5'-cyclic phosphodiesterase (Homo sapiens, UniProt O76074)            %        94.1
 4  CCCCN1C(=O)[C@H]2Cc3c([nH]c4ccccc34)[C@H](c3ccc(CC)s3)N2C1=O  cGMP-specific 3',5'-cyclic phosphodiesterase (Homo sapiens, UniProt O76074)            %        37.9
 5  CCc1ccc([C@H]2c3[nH]c4ccccc4c3C[C@H]3C(=O)N(CC)C(=O)N23)o1  cGMP-specific 3',5'-cyclic phosphodiesterase (Homo sapiens, UniProt O76074)            %        62.2
 6  CCc1ccc([C@@H]2c3[nH]c4ccccc4c3C[C@H]3C(=O)N(C)CC(=O)N23)o1  cGMP-specific 3',5'-cyclic phosphodiesterase (Homo sapiens, UniProt O76074)            %        41.1
 7  CCc1ccc(C(=O)c2[nH]c3ccccc3c2C[C@H]2NC(=O)N(CC)C2=O)s1  cGMP-specific 3',5'-cyclic phosphodiesterase (Homo sapiens, UniProt O76074)            %        11.1
 8  CCc1ccc(C2c3[nH]c4ccccc4c3CCN2C(=O)/C=C/c2ccc(C(=O)O)cc2)s1 (stereo unspecified)  cGMP-specific 3',5'-cyclic phosphodiesterase (Homo sapiens, UniProt O76074)            %        47.4
 9  CCc1ccc([C@@H]2c3[nH]c4ccccc4c3C[C@H]3C(=O)N(CC)C(=O)N23)o1  cGMP-specific 3',5'-cyclic phosphodiesterase (Homo sapiens, UniProt O76074)            %        99.5
10  Cc1ccc([C@@H]2c3[nH]c4ccccc4c3C[C@@H]3C(=O)N(C)CC(=O)N23)o1  cGMP-specific 3',5'-cyclic phosphodiesterase (Homo sapiens, UniProt O76074)            %        89.5
11  CN1CC(=O)N2[C@H](c3ccco3)c3[nH]c4ccccc4c3C[C@@H]2C1=O  cGMP-specific 3',5'-cyclic phosphodiesterase (Homo sapiens, UniProt O76074)            %        48.1
12  CCNC(=O)N1[C@H](c2ccc(CC)s2)c2[nH]c3ccccc3c2C[C@@H]1C(=O)OC  cGMP-specific 3',5'-cyclic phosphodiesterase (Homo sapiens, UniProt O76074)            %        41.3
13  CCc1ccc([C@H]2c3[nH]c4ccccc4c3C[C@H]3C(=O)N(C)CC(=O)N23)s1  cGMP-specific 3',5'-cyclic phosphodiesterase (Homo sapiens, UniProt O76074)            %        86.7
14  Cc1ccc([C@@H]2c3[nH]c4ccccc4c3C[C@@H]3C(=O)N(C)CC(=O)N23)s1  cGMP-specific 3',5'-cyclic phosphodiesterase (Homo sapiens, UniProt O76074)            %          96
15  CCc1ccc(C(=O)c2[nH]c3ccccc3c2C[C@@H]2NC(=O)CN(C)C2=O)s1  cGMP-specific 3',5'-cyclic phosphodiesterase (Homo sapiens, UniProt O76074)            %        23.3
16  CCCCN1C(=O)[C@@H]2Cc3c([nH]c4ccccc34)[C@@H](c3ccc(CC)s3)N2C1=O  cGMP-specific 3',5'-cyclic phosphodiesterase (Homo sapiens, UniProt O76074)            %        79.4
17  CN1CC(=O)N2[C@@H](c3ccco3)c3[nH]c4ccccc4c3C[C@@H]2C1=O  cGMP-specific 3',5'-cyclic phosphodiesterase (Homo sapiens, UniProt O76074)            %        35.2
18  CCc1ccc([C@@H]2c3[nH]c4ccccc4c3C[C@H]3C(=O)N(C)CC(=O)N23)s1  cGMP-specific 3',5'-cyclic phosphodiesterase (Homo sapiens, UniProt O76074)            %        72.7
19  CCN1C(=O)[C@@H]2Cc3c([nH]c4ccccc34)[C@H](c3sccc3C)N2C1=O  cGMP-specific 3',5'-cyclic phosphodiesterase (Homo sapiens, UniProt O76074)            %        27.7
20  CCc1ccc([C@@H]2c3[nH]c4ccccc4c3C[C@@H]3C(=O)N(C)CC(=O)N23)s1  cGMP-specific 3',5'-cyclic phosphodiesterase (Homo sapiens, UniProt O76074)            %        97.8
21  CCc1ccc([C@@H]2c3[nH]c4ccccc4c3C[C@@H]3C(=O)N(C)CC(=O)N23)o1  cGMP-specific 3',5'-cyclic phosphodiesterase (Homo sapiens, UniProt O76074)            %        98.4
22  O=C(c1cc2ccccc2o1)c1[nH]c2ccccc2c1CCNc1ccc(-c2ccccn2)cn1  cGMP-specific 3',5'-cyclic phosphodiesterase (Homo sapiens, UniProt O76074)            %        17.7
23  CCc1ccc(C2c3[nH]c4ccccc4c3CCN2C(=O)/C=C/c2cccc(Br)c2)s1 (stereo unspecified)  cGMP-specific 3',5'-cyclic phosphodiesterase (Homo sapiens, UniProt O76074)            %        33.7
24  CCc1ccc(C2c3[nH]c4ccccc4c3CCN2c2ncc(-c3ccc(OC)c(OC)c3)cn2)s1 (stereo unspecified)  cGMP-specific 3',5'-cyclic phosphodiesterase (Homo sapiens, UniProt O76074)            %        27.6
25  CCc1ccc([C@H]2c3[nH]c4ccccc4c3C[C@H]3C(=O)N(CC)C(=O)N23)s1  cGMP-specific 3',5'-cyclic phosphodiesterase (Homo sapiens, UniProt O76074)            %        44.1
26  CCNC(=O)c1cc2c([nH]c3ccccc32)c(-c2ccc(CC)s2)n1  cGMP-specific 3',5'-cyclic phosphodiesterase (Homo sapiens, UniProt O76074)            %        47.8
27  CCc1ccc([C@H]2c3[nH]c4ccccc4c3C[C@@H]3C(=O)N(C)CC(=O)N23)s1  cGMP-specific 3',5'-cyclic phosphodiesterase (Homo sapiens, UniProt O76074)            %        38.8
28  CCc1ccc([C@@H]2c3[nH]c4ccccc4c3C[C@@H]3C(=O)N(CC)C(=O)N23)o1  cGMP-specific 3',5'-cyclic phosphodiesterase (Homo sapiens, UniProt O76074)            %        85.8
29  Cc1cc(C2c3[nH]c4ccccc4c3CCN2c2ccc(-c3ccccn3)cn2)sc1C (stereo unspecified)  cGMP-specific 3',5'-cyclic phosphodiesterase (Homo sapiens, UniProt O76074)            %        21.2
30  Cc1ccc(C(=O)c2[nH]c3ccccc3c2CCNc2ccc(-c3ccccn3)cn2)o1  cGMP-specific 3',5'-cyclic phosphodiesterase (Homo sapiens, UniProt O76074)            %        23.7
31  CCc1ccc(C2c3[nH]c4ccccc4c3CCN2c2ccc(-c3ccccn3)cn2)o1 (stereo unspecified)  cGMP-specific 3',5'-cyclic phosphodiesterase (Homo sapiens, UniProt O76074)            %        39.2
32  COc1cccc2cc(C3c4[nH]c5ccccc5c4CCN3c3ccc(-c4ccccn4)cn3)oc12 (stereo unspecified)  cGMP-specific 3',5'-cyclic phosphodiesterase (Homo sapiens, UniProt O76074)            %        17.5
33  CN1CC(=O)N2[C@H](c3sccc3Br)c3[nH]c4ccccc4c3C[C@@H]2C1=O  cGMP-specific 3',5'-cyclic phosphodiesterase (Homo sapiens, UniProt O76074)            %        67.2
34  CCCCN1C(=O)[C@H]2Cc3c([nH]c4ccccc34)[C@@H](c3ccc(CC)s3)N2C1=O  cGMP-specific 3',5'-cyclic phosphodiesterase (Homo sapiens, UniProt O76074)            %        76.2
35  CCc1ccc(C(=O)c2[nH]c3ccccc3c2CCNc2ncc(-c3ccc(OC)c(OC)c3)cn2)o1  cGMP-specific 3',5'-cyclic phosphodiesterase (Homo sapiens, UniProt O76074)            %        29.1
36  CCCCN1C(=O)[C@@H]2Cc3c([nH]c4ccccc34)[C@H](c3ccc(CC)s3)N2C1=O  cGMP-specific 3',5'-cyclic phosphodiesterase (Homo sapiens, UniProt O76074)            %        35.9
